Data provenance is PubChem BioAssay.

Assay: resazurin metabolic signal in HepG2 cells – cell-based, resazurin fluorescence, 24 h, PK04 Diversity Set, profiling panel (AID 1172); further: test concentration not given here
Conditions: HepG2 viability, higher = more signal
Field: class. Source value: z-score. Ranges: LOW (below -0.7), MEDIUM (-0.7 to below 0.4), HIGH (0.4 or more)

Reference set, count: 5
Compound	Qualitative Label
COc1ccc([Si](C)(C)[C@@H]2[C@@H](CCO)O[C@]3(C(=O)N(Cc4ccccc4)c4ccc(N5CCCCC5=O)cc43)[C@H]2C)cc1	LOW
Cc1ccc(C(C)CC(O)C2C=CC3C(=O)N(Cc4ccccc4)C(=O)C3N2n2cnnc2)o1 (stereo not given)	LOW
C=CC[C@]1(C(=O)NCC(O)CO)N=C(c2ccc(OCCCO)cc2)O[C@H]1c1ccccc1N=[N+]=[N-] (stereo not given in full)	HIGH
CCOC(=O)C[C@H]1[C@H](OC(=O)c2ccccc2-c2ccccc2)[C@@H](NC(=O)c2ccccc2)c2cc(OCCCO)ccc2N1C(=O)Cc1ccc(OC)cc1	HIGH
CC(C)N1CC=CC23O[C@@H]4C=CCOC(=O)[C@@H]4[C@H]2C(=O)N(CCCCCCO)[C@@H]3C1=O (stereo not given in full)	HIGH

Input line: Returns: class label. Input: Cc1ccc(S[C@]2(C(=O)NCCN3CCOCC3)CC(=O)N(C3Cc4ccccc4C3)[C@@H]2c2ccc(CO)cc2)cc1
Output line: MEDIUM

Input line: Returns: class label. Input: O=C1C[C@@](C(=O)O)(c2ccc([N+](=O)[O-])cc2)[C@@H](c2ccc(CO)cc2)N1CC12CC3CC(CC(C3)C1)C2
Output line: MEDIUM

Input line: Returns: class label. Input: CCCC=C(CCC)[C@@H](NS(=O)(=O)CC)c1ccccc1
Output line: MEDIUM

---

Target: Concanavalin-A (Canavalia ensiformis) (UniProt P02866)
Sequence (P02866 whole entry, looked up): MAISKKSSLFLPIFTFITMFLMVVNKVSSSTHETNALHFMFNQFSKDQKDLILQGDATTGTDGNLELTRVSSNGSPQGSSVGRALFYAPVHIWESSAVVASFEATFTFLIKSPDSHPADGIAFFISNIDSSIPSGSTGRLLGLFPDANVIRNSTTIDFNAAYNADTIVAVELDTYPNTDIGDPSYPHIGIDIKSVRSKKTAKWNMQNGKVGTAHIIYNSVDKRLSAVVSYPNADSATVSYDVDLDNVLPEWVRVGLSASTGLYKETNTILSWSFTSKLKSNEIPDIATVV
Assay: compounds binding concanavalin A lectin – biochemical, small-molecule microarray, Alexa647 label, 635 nm, artefact control for SMM control protein annotation, primary screen (AID 1127);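 further: z combines 667 nm emission intensity with signal-to-noise across three replicate slides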
Conditions: ConA-A647 binding fluorescence, higher = more signal
Test Readout: composite z-score
Just the number, please, no unit attached.

Use these answered entries as a reference point.
Compound	Numeric Result
COC(=O)[C@@]1(Cc2ccc(OC)cc2)[C@H]2c3cc(C(=O)N(C)C)n(Cc4cc(C)n(C)n4)c3C[C@H]2CN1C(=O)c1ccccc1	-0.307
CC(C)CCC[C@@H](C)[C@H]1CC[C@@]2(C)C3=C(CC[C@]12C)[C@@]1(C)CC[C@H](OC(=O)c2ccc(N)cc2)C(C)(C)C1CC3 (some centres not stated)	0.462
COCCOC(=O)N1C(=O)[C@@]2(c3cc(C#CCC(C(=O)OC)C(=O)OC)ccc31)[C@H](c1ccc(OCCO)cc1)N1[C@H](c3ccccc3)[C@H](c3ccccc3)OC(=O)[C@H]1[C@@H]2C(N)=O	1.15

Input line: Bench note: what composite z-score did COCCCNC(=O)[C@@H]1c2ccccc2C(=O)N(c2ccc(C)cn2)[C@H]1c1ccc(CO)cc1 show?
Output line: -0.482

Input line: Bench note: what composite z-score did COC(=O)[C@@]1(Cc2ccccc2)[C@H]2c3cc(C(=O)N(C)C)n(Cc4ccccn4)c3C[C@H]2CN1C(=O)c1ccccc1 show?
Output line: 1.08

Input line: Bench note: what composite z-score did COCCOC(=O)N1C(=O)[C@@]2(c3cc(C#CCCO)ccc31)[C@H](c1ccc(OCCO)cc1)N1[C@H](c3ccccc3)[C@H](c3ccccc3)OC(=O)[C@H]1[C@@H]2C(=O)N1CCc2cc(OC)c(OC)cc2C1 show?
Output line: 1.08

Input line: Bench note: what composite z-score did O=C1CSC(c2cccc([N+](=O)[O-])c2)N1c1ccccc1 (configuration not stated) show?
Output line: 0.612

---

System: Chordin-like protein 2 (CHRDL2)
Test: compounds binding chordin-like 2 – biochemical, small-molecule microarray, 635 nm fluorescence, primary screen (AID 1126);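 further: printed compound slides probed with Chrdl2 protein at 4 µg/mL for 1 h at 4 C; score merges 667 nm emission intensity with signal to noise over three replicate slides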
Settings: fluorescence 635 nm, higher = more signal
Entry flag: MET if composite z-score reaches -0.002; NOT MET if it does not.

Reference set, count: 5
Compound	Qualitative Label
CC(C)(C)N1CC=CC23O[C@@H]4C=CCCOC(=O)C4[C@H]2C(=O)N(CCCO)[C@@H]3C1=O (some centres not stated)	NOT MET
O=c1c2ccc(Br)cc2nc(-c2ccccc2)n1Cc1cccc(O)c1	MET
C#CCOC(=O)N[C@H](C=CCCCC)c1ccccc1	MET
C=CCNC(=O)[C@@H]1[C@H]2C(=O)O[C@H](c3ccccc3)[C@H](c3ccccc3)N2[C@H](c2ccc(O)cc2)[C@@]12C(=O)Nc1ccc(C#CCCO)cc12	NOT MET
NC(=O)NCC#Cc1ccc2c(c1)[C@]1(C(=O)N2)[C@H](c2ccc(O)cc2)N2[C@H](c3ccccc3)[C@H](c3ccccc3)OC(=O)[C@H]2[C@@H]1C(=O)NC[C@H](O)c1ccccc1	NOT MET

Input line: Textbook exercise: given the entry C[C@@]1([C@@H](NC(=O)c2cccs2)c2ccc(-c3ccccc3)cc2)C[C@H]1C1CCCCC1 , state whether its composite z-score is greater than or equal to -0.002.
Output line: NOT MET

Input line: Textbook exercise: given the entry [N-]=[N+]=NCc1ccccc1[C@H]1OC(c2ccc(OCCCO)cc2)=N[C@@]1(Cc1ccccc1N=[N+]=[N-])C(=O)NCCN1CCOCC1 , state whether its composite z-score is greater than or equal to -0.002.
Output line: MET

---

Recorded z-score values for a group of compounds are listed next.
Experiment: resazurin metabolic signal in HepG2 cells – cell-based, resazurin fluorescence, 24 h, PK04 Diversity Set, profiling panel (AID 1172); further: test concentration not given here
Conditions: HepG2 viability, higher = more signal

Compound	z-score
COC(=O)C(CC#Cc1ccc2c(c1)[C@]1(C(=O)N2)[C@H](c2ccc(O)cc2)N2[C@H](c3ccccc3)[C@H](c3ccccc3)OC(=O)[C@H]2[C@@H]1C(=O)O)C(=O)OC	0.464

Input line: Bench note: what z-score did O=C(NCc1ccccc1)[C@]1(Cc2ccccc2)N=C(c2ccc(OCCCO)cc2)O[C@@H]1c1ccccc1 show?
Output line: 0.455

Input line: Bench note: what z-score did COCCCNC(=O)[C@]1(Cc2ccccc2)N=C(c2ccc(OCCCO)cc2)O[C@@H]1c1ccccc1N=[N+]=[N-] show?
Output line: 0.0754

Input line: Bench note: what z-score did CC(C)NC(=O)[C@@H]1c2ccccc2C(=O)N(Cc2cc(C(F)(F)F)cc(C(F)(F)F)c2)[C@H]1c1ccc(CO)cc1 show?
Output line: 0.447

---

Tested on: Wnt5a (protein binding on small-molecule microarray)
Assay: small molecules binding Wnt5a protein – biophysical, small-molecule microarray, 635/667 nm fluorescence, primary screen (AID 1142);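 further: fluorescence read at 667 nm with signal to noise per printed feature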
Conditions: 635 nm fluorescence, higher = more signal
Test Readout: composite z-score
Just the number, please, no unit attached.

Compound	composite z-score
CCCCC(O)C1C=CC2C(=O)N(Cc3ccccc3)C(=O)C2N1n1cnnc1 (stereo not drawn)	0.0687
CN(C)CCCC[C@@H]1NC(=O)[C@H]2C[C@@H](C(=O)NCCCCCCNC(=O)CS)[C@@H](c3ccc(O)cc3)N2C1=O	-0.261
COc1ccc(CCNC(=O)[C@@H]2c3ccccc3C(=O)N(Cc3ccccc3)[C@H]2c2ccc(CO)cc2)cc1	-0.039

Input line: Bench note: what composite z-score did COc1ccc([Si](C)(C)[C@@H]2[C@@H](CC(=O)N(CCO)Cc3ccccc3)O[C@]3(C(=O)N(C)c4c(Br)cc(C)cc43)[C@H]2C)cc1 show?
Output line: 0.312

Input line: Bench note: what composite z-score did CCN(CC)c1ccc(N2CC=CC34O[C@@H]5/C=C\CCCOC(=O)C5[C@H]3C(=O)N(CCCCCO)[C@@H]4C2=O)cc1 (stereo partly drawn) show?
Output line: -0.704

Input line: Bench note: what composite z-score did NC(=O)[C@@H]1[C@H]2C(=O)O[C@H](c3ccccc3)[C@H](c3ccccc3)N2[C@H](c2ccccc2OCCO)[C@@]12C(=O)Nc1ccc(C#CCCO)cc12 show?
Output line: -0.335

Input line: Bench note: what composite z-score did COC(=O)[C@@]1(Cc2ccc(OC)cc2)[C@H]2c3cc(C(=O)N(C)C)n(Cc4cc(F)c(F)c(F)c4)c3C[C@H]2CN1C(=O)c1ccccc1 show?
Output line: 0.397

Input line: Bench note: what composite z-score did C=CCOc1ccc([C@@H]2CC=C(C(=O)OCC)[C@H](c3cccc(Br)c3)N2S(=O)(=O)c2ccc(C)cc2)cc1 show?
Output line: 0.141

Input line: Bench note: what composite z-score did NC(=O)NCC#Cc1ccc2c(c1)[C@]1(C(=O)N2)[C@H](c2ccc(O)cc2)N2[C@H](c3ccccc3)[C@H](c3ccccc3)OC(=O)[C@H]2[C@@H]1C(=O)NC[C@H](O)c1ccccc1 show?
Output line: -0.579

Input line: Bench note: what composite z-score did O=C1O[C@@H](c2ccccc2)[C@@H](c2ccccc2)N2[C@@H](c3ccc(O)cc3)[C@]3(C(=O)Nc4ccc(C#CC5=CCCCC5)cc43)[C@@H](C(=O)Nc3nc4ccccc4s3)[C@H]12 show?
Output line: 0.61

Input line: Bench note: what composite z-score did COc1ccccc1CN1C(=O)c2ccccc2[C@](Cc2ccccc2I)(C(=O)NCCN2CCOCC2)[C@@H]1c1ccc(CO)cc1 show?
Output line: 0.375

Input line: Bench note: what composite z-score did COC(=O)[C@@]1(Cc2ccccc2N=[N+]=[N-])N=C(c2ccc(OCCCO)cc2)O[C@H]1c1ccccc1 show?
Output line: 0.748

Input line: Bench note: what composite z-score did C=CCNC(=O)[C@H]1[C@@H]2C(=O)O[C@@H](c3ccccc3)[C@@H](c3ccccc3)N2[C@@H](c2ccc(OCCO)cc2)[C@]12C(=O)N(C(=O)OCCOC)c1ccc(C#CC3=CCCCC3)cc12 show?
Output line: -0.0184
